These entries and their values trace back to the supplement of paper PMC7411054.

Test system: HepG2-GM130-SQSTM1
Procedure summary: phenotypically active (imaging signature differs from DMSO and reproducible) at any of 0.3-9 uM (binary (1 = active, 0 = inactive)); higher = active
Condition info: treatment time: 24 h
Outcome codes: class 1 (active), class 0 (inactive)

{"Molecule": "Cc1c(CN2CCN(C(=O)[C@H](C)O)CC2)sc2c(N3CCOCC3)nc(-c3cnc(N)nc3)nc12", "Qualitative label": "class 1"}
{"Molecule": "COc1cc(C)c(Sc2cnc(NC(=O)c3ccc(CNC(C)C(C)(C)C)cc3)s2)cc1C(=O)N1CCN(C(C)=O)CC1 (centres undefined)", "Qualitative label": "class 1"}
{"Molecule": "CCCc1nc(C(C)(C)O)c(C(=O)OCc2oc(=O)oc2C)n1Cc1ccc(-c2ccccc2-c2nnn[nH]2)cc1", "Qualitative label": "class 0"}
{"Molecule": "CC(C)Cn1c(=O)n(C)c(=O)c2[nH]cnc21", "Qualitative label": "class 0"}
{"Molecule": "COC(=O)C1=CO[C@@H](O[C@@H]2O[C@H](CO)[C@@H](O)[C@H](O)[C@H]2O)[C@H]2[C@@H]1C(=O)C[C@@H]2C", "Qualitative label": "class 0"}
{"Molecule": "CC1CCC(C(C)C)C(O)C1 (centres undefined)", "Qualitative label": "class 0"}
{"Molecule": "O=c1oc2c(O)c(O)cc3c(=O)oc4c(O)c(O)cc1c4c23", "Qualitative label": "class 0"}
{"Molecule": "CCc1cncnc1N1CCN(Cc2nc3cc(C(F)(F)F)ccc3[nH]2)CC1", "Qualitative label": "class 1"}
{"Molecule": "CN(C)CC(=O)N1CCC[C@@H](n2nc(-c3ccc(Oc4ccccc4)cc3)c3c(N)ncnc32)C1", "Qualitative label": "class 1"}

* * *

Tested on: WPMY1-ACTB-RAB5A
Procedure summary: phenotypically active (imaging signature differs from DMSO and reproducible) at any of 0.3-9 uM (binary (1 = active, 0 = inactive)); higher = active
Condition info: treatment time: 24 h
Outcome codes: active, inactive

{"Compound": "C=C1C(=O)O[C@@H]2[C@H]3O[C@]3(C)CCC=C(C)CC[C@@H]12 [Parthenolide]", "Qualitative label": "active"}
{"Compound": "Cc1c(C)c2c(c(C)c1O)CC[C@@](C)(CCC[C@H](C)CCC[C@H](C)CCCC(C)C)O2 [Tocopherol (R,S)]", "Qualitative label": "inactive"}
{"Compound": "CCCCC1C(=O)N(c2ccccc2)N(c2ccc(O)cc2)C1=O (stereo not drawn)", "Qualitative label": "inactive"}
{"Compound": "CNCCC(Oc1ccc(C(F)(F)F)cc1)c1ccccc1 (stereo not drawn)", "Qualitative label": "inactive"}
{"Compound": "CCOC(=O)[C@H](CCc1ccccc1)N[C@@H](C)C(=O)N1[C@H](C(=O)O)C[C@@H]2CCC[C@@H]21", "Qualitative label": "inactive"}
{"Compound": "COCC(=O)N[C@@H](Cc1ccc(-c2cc(Cl)cc(Cl)c2)cc1)[C@H](O)[C@@H](O)C(=O)O", "Qualitative label": "inactive"}
{"Compound": "O=C(Nc1cccnn1)N1CCN(c2nccc(-c3ccc(F)c(F)c3)n2)CC1", "Qualitative label": "inactive"}
{"Compound": "O=C1Nc2ccc(F)cc2C1=C1Nc2ccccc2C1=NO", "Qualitative label": "active"}
